Target or system: angiotensin II receptor subtype 2 (AT2) (Bos taurus, UniProt G5E6F7)
Construct: receptor : from cerebellar cortex in bovine; from tissue; host or cells: bovine cerebellar cortex
Sequence (G5E6F7 1-362): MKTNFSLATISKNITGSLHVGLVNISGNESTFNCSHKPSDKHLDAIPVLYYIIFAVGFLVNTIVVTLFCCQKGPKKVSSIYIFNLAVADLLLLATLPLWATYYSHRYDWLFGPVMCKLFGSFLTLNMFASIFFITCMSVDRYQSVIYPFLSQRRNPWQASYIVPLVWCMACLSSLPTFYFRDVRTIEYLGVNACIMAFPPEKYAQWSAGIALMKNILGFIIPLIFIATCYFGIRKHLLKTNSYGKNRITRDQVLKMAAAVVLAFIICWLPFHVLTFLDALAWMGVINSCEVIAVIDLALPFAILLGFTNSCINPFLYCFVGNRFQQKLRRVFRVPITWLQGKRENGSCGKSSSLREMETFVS
Assay info: Binding to receptors: angiotensin II receptor subtype 2 (AT2)
Condition set: bovine cerebellar cortex, tracer 125I-Tyr4-angiotensin II
Hi there, I'd appreciate the recorded inhibition at 100 µM for every entry that follows.
Kindly provide the numeric value in % only, without the unit symbol.

If you can, please state the reported inhibition at 100 µM value of CCCCCCC(=O)N(Cc1ccc(C(=O)O)cc1)c1cc(C(=O)N2CCN(CCC)CC2)ccc1C(C)C .
0

Fill in the blank: the reported inhibition at 100 µM of CCCCCCC(=O)N(Cc1ccc(C(=O)O)cc1)c1cc(C(=O)N2CCN(C)CC2)ccc1C(C)C is ____.
9

Can you share its inhibition at 100 µM? I mean this compound: CCCCC(=O)N(Cc1ccc(C(=O)O)cc1)c1cc(C(=O)N2CCN(C)CC2)ccc1C(C)C
0

Please look up its inhibition at 100 µM: CCCCCCCC(=O)N(Cc1ccc(C(=O)O)cc1)c1cc(C(=O)N2CCN(C)CC2)ccc1N(C)C
0

Which inhibition at 100 µM value is on record for CCCCC(=O)N(Cc1ccc(C(=O)OCCN(CC)CC)cc1)c1cc(C(=O)N2CCOCC2)ccc1C(C)C ?
0

Which measured inhibition at 100 µM value corresponds to CCCCC(=O)N(Cc1ccc(C(=O)OC2CNC(C(=O)OCC)C2)cc1)c1cc(C(=O)N2CCOCC2)ccc1N(C)C (centres unmarked) ?
0

Quick one: inhibition at 100 µM of CCCCC(=O)N(Cc1ccc(C(=O)O)cc1)c1cc(C(=O)N2CCN(CCC)CC2)ccc1C(C)C ?
18

What inhibition at 100 µM value was documented for this compound, CCCCC(=O)N(Cc1ccc(C(=O)OCCCN(C)C)cc1)c1cc(C(=O)N2CCOCC2)ccc1N(C)C ?
0

Which inhibition at 100 µM is reported for this compound? CCCCC(=O)N(Cc1ccc(C(=O)OCCN(C)C)cc1)c1cc(C(=O)N2CCOCC2)ccc1C(C)C
21

May I ask what inhibition at 100 µM has been recorded for CCCCC(=O)N(Cc1ccc(C(=O)O)cc1)c1cc(C(=O)N2CCN(C)CC2)ccc1N(C)C ?
0

Give the measured inhibition at 100 µM of CCCCCCC(=O)N(Cc1ccc(C(=O)O)cc1)c1cc(C(=O)N2CCN(CCC)CC2)ccc1N(C)C .
0

What value of inhibition at 100 µM has been recorded for this entry: CCCCC(=O)N(Cc1ccc(C(=O)OCC(N)C(=O)OCC)cc1)c1cc(C(=O)N2CCOCC2)ccc1N(C)C (centres unmarked)
0

Could you share which inhibition at 100 µM value was measured for CCCCC(=O)N(Cc1ccc(C(=O)OCCN(C)C)cc1)c1cc(C(=O)N2CCOCC2)ccc1N(C)C ?
16

Using the record for CCCCC(=O)N(Cc1ccc(C(=O)OCC)cc1)c1cc(C(=O)N2CCN(C)CC2)ccc1C(C)C , report its inhibition at 100 µM.
0

###

Task for the reader: assign each of the following molecules its reported log10 of AUC at 24 h.
Assay info: Oral absorption (amount of compound in rat serum by HPLC, area under curve)
Type: in vivo, Sprague-Dawley female rats
Condition set: single dosage 160 mg/kg in water, 0.5 to 24 hours, average of 3 rats
Would you kindly interpret these values as log10 of AUC at 24 h expressed in ng·h/mL?

What value of log10 of AUC at 24 h has been recorded for this entry: CCCCC(=O)N(Cc1ccc(C(=O)OCCN(C)C)cc1)c1cc(C(=O)N2CCOCC2)ccc1C(C)C
4.54

Given the entry CCCCC(=O)N(Cc1ccc(C(=O)O)cc1)c1cc(C(=O)N2CCOCC2)ccc1N(C)C [reference substance, reference compound] , report its measured log10 of AUC at 24 h.
2.79

# lookup: log10 of AUC at 24 h of CCCCC(=O)N(Cc1ccc(C(=O)O)cc1)c1cc(C(=O)N2CCN(CCC)CC2)ccc1N(C)C
4.88

I would be grateful if you could share the reported log10 of AUC at 24 h for CCCCC(=O)N(Cc1ccc(C(=O)OCCCN)cc1)c1cc(C(=O)N2CCOCC2)ccc1N(C)C .
3.98

Requested read-out: log10 of AUC at 24 h. Entry: CCCCC(=O)N(Cc1ccc(C(=O)O)cc1)c1cc(C(=O)N2CCN(C)CC2)ccc1C(C)C
3.75
